Assay: GFP drop in mixed WT/humanized-ribosome E. coli culture – GFP/RFP fluorescence, OD600, single point, bacterial rRNA inhibitor project, primary screen (AID 720706)
Settings: E. coli WT GFP vs humanized-ribosome RFP mutants, 24 h; measured here: RFP humanized mutant strains, DMSO median 0, no signal -100, concentration not given here
About 5,500 (1.6%) of roughly 350,000 compounds were called active. Shown is part of a subset that was picked to be rich in actives.
ENDPOINT NAME: RFP signal change (%)
Unit % implied. Number only.

input: Look up RFP signal change of Cc1ccc(S(=O)(=O)NCCCn2ccnc2)cc1C(=O)NC(C)C and report it.
output: -1.51

input: Look up RFP signal change of O=C(c1cccc(F)c1)N1CC(=O)N2[C@H](C1)[C@@H](c1ccc(C#Cc3ccc(F)cc3)cc1)[C@@H]2CO and report it.
output: 4.35

input: Look up RFP signal change of CC1CCN(C(=S)NC(=O)c2ccccc2Br)CC1 and report it.
output: -0.105

input: Look up RFP signal change of CNC[C@@H]1Oc2ccc(NC(C)=O)cc2CC(=O)N(C)C[C@@H]1C and report it.
output: 0.729

input: Look up RFP signal change of CCN(CC)C(=O)C(=O)c1cn(CC(=O)NCc2ccc3c(c2)OCO3)c2ccccc12 and report it.
output: 3.71

input: Look up RFP signal change of O=C([C@H]1[C@H](CO)[C@H]2Cn3c(ccc(-c4ccccc4)c3=O)[C@@H]1N2Cc1cccnc1)N1CCOCC1 and report it.
output: 0.504

input: Look up RFP signal change of COc1ccccc1S(=O)(=O)N[C@@H]1CC[C@H](CCn2cc(C3CCCC3)nn2)O[C@H]1CO and report it.
output: -3.27

input: Look up RFP signal change of CCCOc1ccc(NC(=O)CC2C(=O)N(C)C(=S)N2Cc2ccc3c(c2)OCO3)cc1 (stereo unspecified) and report it.
output: 1.22

input: Look up RFP signal change of O=C(NC(=S)Nc1ncccn1)c1ccccc1Br and report it.
output: -3.8

input: Look up RFP signal change of O=C(Nc1ccc(Cl)cc1)C1c2cccc[n+]2CC(=O)N1Cc1ccc2c(c1)OCO2 (stereo unspecified) and report it.
output: -2.94

input: Look up RFP signal change of COc1ccc(CNC(=O)CN(Cc2ccccc2Cl)C(=O)c2csnn2)cc1 and report it.
output: 1.92

input: Look up RFP signal change of O=S1(=O)N=C(N(CCO)/N=C/c2ccccc2F)c2ccccc21 and report it.
output: 2.34

input: Look up RFP signal change of CN1CCN(C(=O)c2ccc(-c3ccc(Br)cc3)o2)CC1 and report it.
output: 2.79

input: Look up RFP signal change of Cc1noc(C)c1NC(=O)Nc1ccc2c(c1)C(=O)N([C@@H](C)CO)C[C@H](C)[C@H](CN(C)CC1CCCCC1)O2 and report it.
output: -1.48

input: Look up RFP signal change of Cc1ccc(S(=O)(=O)NCCC(c2ccccc2)c2ccccc2)cc1C(=O)O and report it.
output: -13.9

input: Look up RFP signal change of C=CCn1c(CCc2ccc(OC(C)C)cc2)n[nH]c1=S and report it.
output: 1.11

input: Look up RFP signal change of CCCN(CC1CC1)C(=S)NC(=O)c1ccccc1Br and report it.
output: -8.89

input: Look up RFP signal change of C=CCn1c(-c2ccccc2OCC)n[nH]c1=S and report it.
output: 2.66

input: Look up RFP signal change of Cc1[nH]c2ccc(C(=O)N3CCN(C)CC3)cc2c1C and report it.
output: 3.29

input: Look up RFP signal change of C[C@@H]1CN([C@@H](C)CO)C(=O)c2cc(NC(=O)CCCN(C)C)ccc2O[C@@H](C)CCCCO[C@H]1CN(C)C(=O)Nc1cccc2ccccc12 and report it.
output: 4.52

input: Look up RFP signal change of Nc1ccn([C@@H]2O[C@H](C(=O)N[C@H]3CCCCNC3=O)[C@@H](O)[C@H]2O)c(=O)n1 and report it.
output: 2.71

----------
Assay: GFP drop in mixed WT/humanized-ribosome E. coli culture – GFP/RFP fluorescence, OD600, single point, bacterial rRNA inhibitor project, primary screen (AID 720706)
Conditions: E. coli WT GFP vs humanized-ribosome RFP mutants, 24 h; measured here: OD600 growth, DMSO median 0, no signal -100
Out of some 350,000 compounds screened, about 5,500 (1.6%) were called active. For the sample, actives were picked, then their nearest neighbours and some compounds at random.
ENDPOINT NAME: OD600 change (%)
Unit % implied. Number only.

input: Look up OD600 change of Cc1ccc2cc(/C=N/Nc3ccc(C(=O)O)cc3)c(Cl)nc2c1 and report it.
output: -7.45

input: Look up OD600 change of O=C(/C=C\c1cn(-c2ccccc2)nc1-c1cccs1)N1CCOCC1 and report it.
output: -11.3

input: Look up OD600 change of COC(=O)c1ccc(COC(=O)CNC(=O)c2cccc(OC)c2)o1 and report it.
output: 11.4

input: Look up OD600 change of C[C@H]1CN([C@@H](C)CO)C(=O)c2c(c3ccccc3n2C)-c2ccccc2CO[C@@H]1CN(C)CC1CCCCC1 and report it.
output: -38.8

input: Look up OD600 change of Cc1nn(C)cc1C(=O)Nc1ccccc1Br and report it.
output: 6.79

input: Look up OD600 change of COc1cc(F)c(C2=CC(=O)CC(C)(C)C2)cc1F and report it.
output: -16.7

input: Look up OD600 change of Cc1ccc(S(=O)(=O)N2CC(O)C[C@H]2C(=O)OCC(=O)Nc2ccc(N3CCOCC3)cc2)cc1C (stereo partly specified) and report it.
output: 7.03

input: Look up OD600 change of COc1ccc(NC(=O)N2C[C@H](O)COC[C@@H]3O[C@@H](CC(=O)NCc4ccccc4OC)CC[C@H]32)cc1 and report it.
output: -2.52

input: Look up OD600 change of COc1cccc(C(=O)NCCSc2ccc(Br)cc2)c1 and report it.
output: -75.8

input: Look up OD600 change of CCn1c(NC(=O)c2nn(C)cc2Br)nc2ccccc21 and report it.
output: -7.54

input: Look up OD600 change of COc1ccc(S(=O)(=O)N[C@H]2CC[C@H](CCn3cc(C(C)C)nn3)O[C@@H]2CO)cc1 and report it.
output: 10.4

----------
Assay: GFP drop in mixed WT/humanized-ribosome E. coli culture – GFP/RFP fluorescence, OD600, single point, bacterial rRNA inhibitor project, primary screen (AID 720706)
Conditions: E. coli WT GFP vs humanized-ribosome RFP mutants, 24 h; measured here: OD600 growth, DMSO median 0, no signal -100
Out of some 350,000 compounds screened, about 5,500 (1.6%) were called active. Only a selection was taken, and actives are over-represented in it overall.
ENDPOINT NAME: OD600 change (%)
Unit % implied. Number only.

input: Look up OD600 change of Cc1cccc(CNS(=O)(=O)c2ccc(-c3cnc(C4CC4)o3)cc2)c1 and report it.
output: -23

input: Look up OD600 change of COc1ccc(-n2cc(CNC3CCOCC3)c(-c3cccc(F)c3)n2)cc1 and report it.
output: -24.4

input: Look up OD600 change of COc1ccc2c3c(n(C)c2c1)[C@@H](CO)N(C(=O)c1cnccn1)CC31CCN(C(C)=O)CC1 and report it.
output: 18.1

input: Look up OD600 change of CCC(O)C1CCN(Cc2cn(-c3ccc(OC)cc3)nc2-c2cccc(F)c2)CC1 (stereo unspecified) and report it.
output: -11

input: Look up OD600 change of COc1ccccc1NC(=O)N1C[C@@H](O)COC[C@H]2O[C@@H](CC(=O)NCc3ccccc3)CC[C@@H]21 and report it.
output: -2.65

input: Look up OD600 change of COc1ccc(NC(=O)N[C@@H]2CC[C@H](CCn3cc(-c4ccc(OC)cc4)nn3)O[C@@H]2CO)cc1 and report it.
output: -6.01

input: Look up OD600 change of C[C@@H]1CCCCO[C@@H](CN(C)C(=O)Nc2ccc(F)cc2)[C@H](C)CN([C@@H](C)CO)C(=O)c2cc(NS(C)(=O)=O)ccc2O1 and report it.
output: -0.127

input: Look up OD600 change of C[C@@H]1CN([C@H](C)CO)C(=O)c2cc(C#CC3CC3)cnc2O[C@H]1CN(C)C(=O)CC1CC1 and report it.
output: 4.53

input: Look up OD600 change of Cc1cccc(NS(=O)(=O)c2ccc(-c3cnc(C4CC4)o3)cc2)c1 and report it.
output: -53.1

input: Look up OD600 change of C[C@@H]1CN([C@H](C)CO)C(=O)c2cc(-c3cccc(F)c3)cnc2O[C@H]1CN(C)C(=O)Nc1ccccc1F and report it.
output: -5.06

input: Look up OD600 change of COc1ccc(CNS(=O)(=O)c2ccc(-c3cnc(C4CC4)o3)cc2)cc1 and report it.
output: -8.89
